- system-tested: CB1 (CNR1) (Homo sapiens)
- test-summary: cAMP CNR1 Hunter cell line antagonist assay (CB1 assay)
- condition-description: antagonist mode, cAMP CNR1 Hunter cells, EC80 agonist; read-out: CB1 assay, Efficacy (IC50)
List of IC50 values.
measure-name: IC50

INSERT INTO measurements (molecule, obs_value) VALUES
  ('CC(C)CC1Oc2c(cc(Br)cc2S(=O)(=O)Nc2cccc(F)c2)NC1=O (stereo not shown)', '1 to 25 µM'),
  ('CCc1cccc(NS(=O)(=O)c2cc(S(=O)(=O)CC)cc3c2OCC(=O)N3)c1', '≥ 25 µM'),
  ('Cc1c(Cl)cc2c(c1S(=O)(=O)Nc1ccc(OC(F)(F)F)cc1)OCC(=O)N2', '≥ 25 µM'),
  ('Cc1ccc(NS(=O)(=O)c2cc3c(cc2Cl)NC(=O)C(C)O3)cc1F (stereo not shown)', '1 to 25 µM'),
  ('CCC1Oc2cc(S(=O)(=O)Nc3ccc(C)cc3)c(Cl)cc2NC1=O (stereo not shown)', '1 to 25 µM'),
  ('CC1Oc2c(cc(Cl)cc2S(=O)(=O)Nc2ccc(F)cc2)NC1=O (stereo not shown)', '1 to 25 µM'),
  ('CC(C)CC1Oc2c(cc(Br)cc2S(=O)(=O)Nc2cccc(Cl)c2)NC1=O (stereo not shown)', '≥ 25 µM'),
  ('COc1ccc(NS(=O)(=O)c2cc3c(cc2Br)NC(=O)CCO3)cc1Cl', '1 to 25 µM'),
  ('CCC1Oc2c(cc(Cl)cc2S(=O)(=O)Nc2ccc(F)cc2F)NC1=O (stereo not shown)', '≥ 25 µM'),
  ('CCc1ccc(NS(=O)(=O)c2cc3c(cc2Br)NC(=O)C(CC(C)C)O3)cc1 (stereo not shown)', '1 to 25 µM'),
  ('CCC1Oc2cc(S(=O)(=O)Nc3cccc(Cl)c3)c(Br)cc2NC1=O (stereo not shown)', '1 to 25 µM'),
  ('CCc1ccc(NS(=O)(=O)c2cc3c(cc2Br)N(C)C(=O)C(CC)O3)cc1 (stereo not shown)', '≥ 25 µM'),
  ('CCc1ccc(NS(=O)(=O)c2cc(Br)cc3c2OCC(=O)N3)cc1', '1 to 25 µM'),
  ('O=C1COc2c(cc(Br)cc2S(=O)(=O)NC2CCC(O)CC2)N1 (stereo not shown)', '≥ 25 µM'),
  ('CC1C(=O)Nc2ccc(S(=O)(=O)N3CCCC3)cc2N1C(=O)N1CCOCC1 (stereo not shown)', '≥ 25 µM'),
  ('CC1Oc2c(cc(Br)cc2S(=O)(=O)NCc2ccc(F)cc2F)NC1=O (stereo not shown)', '≥ 25 µM'),
  ('CCOc1ccc(NS(=O)(=O)c2cc(Br)cc3c2OCC(=O)N3)cc1', '≥ 25 µM'),
  ('CCC1Oc2cc(S(=O)(=O)Nc3cccc(F)c3)c(Br)cc2NC1=O (stereo not shown)', '≥ 25 µM'),
  ('Cc1ccc(Cl)cc1NS(=O)(=O)c1cc(Cl)cc2c1OCC(=O)N2', '1 to 25 µM');

---

- system-tested: CB1 (CNR1) (Homo sapiens)
- test-summary: cAMP CNR1 Hunter cell line antagonist assay (CB1 assay)
- condition-description: antagonist mode, cAMP CNR1 Hunter cells, EC80 agonist; read-out: CB1 assay, Efficacy (IC50)
// values below are reported IC50
measure-name: IC50

INSERT INTO assay_data (compound, system_tested, obs_value) VALUES
  ('CC1Oc2c(cc(Br)cc2S(=O)(=O)Nc2ccc(Cl)cc2)N(C)C1=O (stereo not shown)', 'CB1 (CNR1) (Homo sapiens)', '≥ 25 µM'),
  ('O=C1COc2c(cc(Cl)cc2S(=O)(=O)Nc2ccc(OC(F)(F)F)cc2)N1', 'CB1 (CNR1) (Homo sapiens)', '≥ 25 µM'),
  ('CCc1ccc(NS(=O)(=O)c2cc(Cl)cc3c2OC(C)C(=O)N3)cc1 (stereo not shown)', 'CB1 (CNR1) (Homo sapiens)', '1 to 25 µM'),
  ('CCOc1ccc(NS(=O)(=O)c2cc3c(cc2Cl)NC(=O)C(C)O3)cc1 (stereo not shown)', 'CB1 (CNR1) (Homo sapiens)', '≥ 25 µM'),
  ('O=C1NCCOc2c1cc(Br)cc2S(=O)(=O)Nc1ccc(F)cc1F', 'CB1 (CNR1) (Homo sapiens)', '≥ 25 µM'),
  ('CCC1Oc2c(cc(Br)cc2S(=O)(=O)NCc2ccc(F)cc2F)NC1=O (stereo not shown)', 'CB1 (CNR1) (Homo sapiens)', '≥ 25 µM'),
  ('CCC1Oc2cc(S(=O)(=O)Nc3ccc(F)cc3)c(Cl)cc2NC1=O (stereo not shown)', 'CB1 (CNR1) (Homo sapiens)', '1 to 25 µM'),
  ('CC1Oc2cc(S(=O)(=O)Nc3ccc(C(C)C)cc3)c(Br)cc2N(C)C1=O (stereo not shown)', 'CB1 (CNR1) (Homo sapiens)', '≥ 25 µM'),
  ('CCC1Oc2cc(S(=O)(=O)NCCc3ccc(OC(F)(F)F)cc3)c(Br)cc2NC1=O (stereo not shown)', 'CB1 (CNR1) (Homo sapiens)', '≥ 25 µM'),
  ('O=C1CCOc2cc(S(=O)(=O)Nc3ccccc3)c(Br)cc2N1', 'CB1 (CNR1) (Homo sapiens)', '≥ 25 µM'),
  ('CCS(=O)(=O)c1cc2c(c(S(=O)(=O)Nc3ccc(C)c(Cl)c3)c1)OCC(=O)N2', 'CB1 (CNR1) (Homo sapiens)', '≥ 25 µM'),
  ('CC(C)CC(=O)N1c2cc(S(=O)(=O)N3CCCC3)ccc2NC(=O)C1C (stereo not shown)', 'CB1 (CNR1) (Homo sapiens)', '1 to 25 µM'),
  ('CC(C)CNS(=O)(=O)c1cc2c(cc1Br)NC(=O)C(C)O2 (stereo not shown)', 'CB1 (CNR1) (Homo sapiens)', '1 to 25 µM'),
  ('CC1Oc2c(cc(Cl)cc2S(=O)(=O)Nc2cccc(Cl)c2)NC1=O (stereo not shown)', 'CB1 (CNR1) (Homo sapiens)', '1 to 25 µM'),
  ('CCC1Oc2cc(S(=O)(=O)Nc3ccc(OC(F)(F)F)cc3)c(Br)cc2N(C)C1=O (stereo not shown)', 'CB1 (CNR1) (Homo sapiens)', '≥ 25 µM'),
  ('CC1Oc2cc(S(=O)(=O)Nc3ccc(F)c(F)c3)c(Br)cc2NC1=O (stereo not shown)', 'CB1 (CNR1) (Homo sapiens)', '≥ 25 µM'),
  ('Cc1ccc(NS(=O)(=O)c2cc(S(C)(=O)=O)cc3c2OCC(=O)N3)cc1Cl', 'CB1 (CNR1) (Homo sapiens)', '≥ 25 µM'),
  ('CC1Oc2cc(S(=O)(=O)Nc3ccc(Cl)cc3)c(Cl)cc2NC1=O (stereo not shown)', 'CB1 (CNR1) (Homo sapiens)', '1 to 25 µM'),
  ('CCC1Oc2c(cc(Br)cc2S(=O)(=O)NCc2ccccc2)NC1=O (stereo not shown)', 'CB1 (CNR1) (Homo sapiens)', '≥ 25 µM');

---

- system-tested: CB1 (CNR1) (Homo sapiens, UniProt P21554)
- Sequence (P21554 whole entry): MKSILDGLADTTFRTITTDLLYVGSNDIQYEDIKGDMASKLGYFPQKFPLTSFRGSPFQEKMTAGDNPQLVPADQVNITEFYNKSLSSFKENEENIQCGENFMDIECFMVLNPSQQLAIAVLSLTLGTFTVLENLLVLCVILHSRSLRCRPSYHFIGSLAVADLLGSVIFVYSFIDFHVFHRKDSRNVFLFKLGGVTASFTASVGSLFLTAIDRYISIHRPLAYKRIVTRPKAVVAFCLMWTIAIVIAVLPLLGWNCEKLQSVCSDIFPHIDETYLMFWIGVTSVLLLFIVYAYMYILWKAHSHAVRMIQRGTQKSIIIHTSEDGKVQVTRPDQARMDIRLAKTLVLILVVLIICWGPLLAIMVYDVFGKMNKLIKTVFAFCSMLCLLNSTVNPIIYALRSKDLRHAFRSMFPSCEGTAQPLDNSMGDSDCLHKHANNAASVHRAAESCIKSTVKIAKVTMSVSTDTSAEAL
- test-summary: cAMP CNR1 Hunter cell line antagonist assay (CB1 assay)
- condition-description: antagonist mode, cAMP CNR1 Hunter cells, EC80 agonist; read-out: CB1 assay, Efficacy (IC50)
pIC50: −log10 of the molar value.
Quick list: pIC50 per entry.
measure-name: pIC50

INSERT INTO results (compound, measure_name, obs_value) VALUES
  ('O=C1COc2c(cc(Br)cc2S(=O)(=O)NCCc2ccc(OC(F)(F)F)cc2)N1', 'pIC50', '≤ 4.60'),
  ('Cc1ccc(NS(=O)(=O)c2cc(Br)cc3c2OC(C)C(=O)N3C)cc1Cl (stereo not drawn)', 'pIC50', '4.60 to 6.00'),
  ('CCC1Oc2c(cc(Br)cc2S(=O)(=O)NC2CCC(C(C)(C)C)CC2)NC1=O (stereo not drawn)', 'pIC50', '4.60 to 6.00'),
  ('CCC1Oc2cc(S(=O)(=O)Nc3ccccc3)c(Cl)cc2NC1=O (stereo not drawn)', 'pIC50', '4.60 to 6.00'),
  ('CCc1ccc(NS(=O)(=O)c2cc3c(cc2Cl)NC(=O)C(C)O3)cc1 (stereo not drawn)', 'pIC50', '≤ 4.60'),
  ('CCC1Oc2c(cc(Br)cc2S(=O)(=O)Nc2ccc(Cl)cc2)NC1=O (stereo not drawn)', 'pIC50', '≤ 4.60'),
  ('CCC1Oc2c(cc(Cl)cc2S(=O)(=O)Nc2ccc(C)c(Cl)c2)NC1=O (stereo not drawn)', 'pIC50', '4.60 to 6.00'),
  ('CCS(=O)(=O)c1cc2c(c(S(=O)(=O)Nc3ccc(OC)cc3)c1)OCC(=O)N2', 'pIC50', '≤ 4.60'),
  ('O=C1COc2cc(S(=O)(=O)Nc3ccc(F)cc3F)c(Br)cc2N1', 'pIC50', '> 6.00');
